Assign self-cleavage to each entry below.
B1: HDV Ribozyme (parent)
chain: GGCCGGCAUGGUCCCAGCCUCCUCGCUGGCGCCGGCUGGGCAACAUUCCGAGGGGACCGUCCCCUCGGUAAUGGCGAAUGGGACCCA

Variants of: B1
assay.details: self-cleavage, relative activity (ratio to wild type); higher = more cleavage; co-transcriptional
The answer should be written as a number, with no unit following it.

self-cleavage for C7U G28U is 0.0712

self-cleavage for C19A U47A is 0.0554

self-cleavage for G10U C18A is 0.0175

self-cleavage for G10C G73A is 0.396

self-cleavage for U69C C84A is 1.09

self-cleavage for G50A C84U is 0.754

self-cleavage for C75A C85U is 0.256

self-cleavage for C21A U23A is 0.0369

self-cleavage for G52C C64U is 0.964

self-cleavage for C33A C57G is 0.332

self-cleavage for C4A A16G is 0.344

self-cleavage for C13G A43U is 0.0923

self-cleavage for G17A C22A is 0.128

self-cleavage for C36G A78U is 0.0346

self-cleavage for C3A C58A is 0.609

self-cleavage for C19U G25C is 0.0489

self-cleavage for G5C G68U is 0.0615

self-cleavage for U47G G50U is 0.831

self-cleavage for G17C G59A is 0.231

self-cleavage for U23C G73A is 0.525

self-cleavage for G73U G81U is 0.208

self-cleavage for G17C C63U is 0.397

Cited source for all entries: the RNAGym collection of RNA variant scans (doi:10.7554/elife.80360)
